Recorded values, source ChEMBL document CHEMBL4825662.

Experiment: Volume of distribution at steady state in Sprague-Dawley rat at 1 mg/kg, iv administered […] measured after 0.02 to 24 hrs by tandem liquid chromatography/mass spectrometry
Assay type: ADME, organism-based
Conditions: in vivo, time 0.02-24 hrs, read-out: Vdss

STRUCTURE STRING: NCc1ccc2c(c1)nc(CN1C(=O)C3(CC3)c3cccc(F)c31)n2CCCC(F)(F)F
Vd: 11 L/kg
//
STRUCTURE STRING: CC(C)CCn1c(CN2C(=O)C3(CC3)c3ccccc32)nc2cc(CN)ccc21
Vd: 34 L/kg
//
STRUCTURE STRING: CC(C)CCn1c(CN2C(=O)C3(CC3)c3ccc(F)cc32)nc2cc(CN)ccc21
Vd: 54.3 L/kg
//
STRUCTURE STRING: CC(C)CCn1c(CN2C(=O)C3(CC3)c3cccc(F)c32)nc2cc(CN)ccc21
Vd: 11.9 L/kg
